# target_or_system: FAAH (Rattus norvegicus, UniProt P97612)
# Construct: Preparation of Rat Brain Membranes Preparations (FAAH Enzyme Solution); from tissue; host or cells: rat cerebrum (brain membrane preparation)
# Sequence (P97612 whole entry): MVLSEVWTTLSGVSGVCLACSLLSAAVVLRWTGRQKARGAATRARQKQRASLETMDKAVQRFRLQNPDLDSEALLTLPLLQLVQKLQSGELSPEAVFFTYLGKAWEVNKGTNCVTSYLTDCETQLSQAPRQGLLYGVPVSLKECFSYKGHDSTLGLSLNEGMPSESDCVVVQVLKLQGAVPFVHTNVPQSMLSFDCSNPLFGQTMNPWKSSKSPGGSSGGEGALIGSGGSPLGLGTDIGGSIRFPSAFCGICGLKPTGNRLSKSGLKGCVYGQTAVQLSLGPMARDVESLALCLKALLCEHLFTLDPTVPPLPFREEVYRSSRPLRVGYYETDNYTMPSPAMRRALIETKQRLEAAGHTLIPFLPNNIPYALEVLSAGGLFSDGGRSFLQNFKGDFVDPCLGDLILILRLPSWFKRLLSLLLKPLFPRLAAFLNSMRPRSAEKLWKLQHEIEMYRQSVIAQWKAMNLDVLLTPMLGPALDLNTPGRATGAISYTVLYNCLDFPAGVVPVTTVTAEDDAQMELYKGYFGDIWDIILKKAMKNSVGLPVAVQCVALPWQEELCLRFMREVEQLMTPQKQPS
# protocol_text: Determination of FAAH inhibitory activity in rat (rat brain membrane preparations, [3H]-anandamide hydrolysis)
# Format: biochemical
# condition_info: rat brain membrane preparations; test substance 0.1 nM to 1 μM; read-out: FAAH Inhibition IC50
pIC50: −log10 of the molar value.
metric_name: pIC50

Use these answered entries as a reference point.
Cn1c(=O)n(C(=O)N2CCCC2)c2cnc(-c3ccccc3)nc21 ... 8.15
CN(C)C(=O)n1c(=O)n(C)c2cnc(CCc3cccc(Cl)c3)nc21 ... 8.40
Cn1c(=O)n(C(=O)N2CCCC2)c2nc(Cc3cc(F)cc(F)c3)ncc21 ... 7.43
CCCCc1ncc2c(n1)n(C)c(=O)n2C(=O)N(C)CCc1ccc(Cl)cc1 ... 8.40
Cn1c(=O)n(C(=O)N2CCCC2)c2nc(-c3ccc(F)nc3)ncc21 ... 7.04
COc1ccccc1N1CCN(C(=O)n2c(=O)n(C)c3nc(-c4ccccc4)ncc32)CC1 ... 7.46

P: Cn1c(=O)n(C(=O)N2CCCC2)c2cnc(/C=C/c3ccccc3)nc21
Q: Cn1c(=O)n(C(=O)N2CCCC2)c2nc(-c3cccc(F)c3)ncc21
**Query** Looking at P and Q , which one comes out lower in pIC50 terms? Respond with the label that goes with your answer.
**Result** Q

---

# target_or_system: FAAH (Rattus norvegicus, UniProt P97612)
# Construct: Preparation of Rat Brain Membranes Preparations (FAAH Enzyme Solution); from tissue; host or cells: rat cerebrum (brain membrane preparation)
# protocol_text: Determination of FAAH inhibitory activity in rat (rat brain membrane preparations, [3H]-anandamide hydrolysis)
# Assay type: biochemical
# condition_info: rat brain membrane preparations; test substance 0.1 nM to 1 μM; read-out: FAAH Inhibition IC50
metric_name: IC50 (µM)

Use these answered entries as a reference point.
CCN(C)C(=O)n1c(=O)n(C)c2nc(Cc3ccc(F)cc3)ncc21 [Example 279] ... 0.003
CN(C)C(=O)n1c(=O)n(C)c2cnc(CCCOc3ccc(F)cc3)nc21 [Example 398] ... 0.009
Cc1ccc(CCc2ncc3c(n2)n(C(=O)N2CCC2)c(=O)n3C)cc1C [compound 565] ... 0.01
CN(C)C(=O)n1c(=O)n(C)c2cnc(COc3cccc(OC(F)F)c3)nc21 [Example 431] ... 0.094
CN(C)C(=O)n1c(=O)n(C)c2cnc(CCc3cc(F)cc(F)c3)nc21 [compound 528] ... 0.055
CN(C)C(=O)n1c(=O)n(C)c2cnc(CCc3ccc(OC4CCCC4)cc3)nc21 [compound 532] ... 0.013
Cc1ccc(-c2ncc3c(n2)n(C(=O)N2CCCC2)c(=O)n3C)cc1 [Example 229] ... 0.053
Cn1c(=O)n(C(=O)N2CCC2)c2nc(COc3cccc(Cl)c3)ncc21 [Example 419] ... 0.031
CCN(C)C(=O)n1c(=O)n(C)c2cnc(CCc3cccc(C)c3)nc21 [compound 556] ... 0.044
Cn1c(=O)n(C(=O)N2CCCC2)c2cnc(Cc3c(F)cccc3F)nc21 [Example 268] ... 0.048

P: Cn1c(=O)n(C(=O)N2CCN(c3ccccc3)CC2)c2cnc(-c3ccccc3)nc21 [Example 120]
Q: CN(C)C(=O)n1c(=O)n(C)c2cnc(COc3ccccc3Cl)nc21 [Example 421]
R: COc1cccc(-c2ncc3c(n2)n(C)c(=O)n3C(=O)N2CC[C@H](F)C2)c1 [Example 63]
S: Cc1ccc(Cc2ncc3c(n2)n(C)c(=O)n3C(=O)N2CCCC2)cc1 [compound 259]
T: CCN(C)C(=O)n1c(=O)n(C)c2nc(-c3ccnc(F)c3)ncc21 [Example 221]
**Query** Sort the compounds on IC50; start with the lowest figure. Please express your ranking as an ordered list of the labels.
**Result** T, P, R, S, Q
(T: 0.004 µM, P: 0.011 µM, R: 0.017 µM, S: 0.041 µM, Q: 0.095 µM)

a: CN(C)C(=O)n1c(=O)n(C)c2cnc(COc3ccccc3C(F)(F)F)nc21 [Example 429]
b: COCc1ncc2c(n1)n(C)c(=O)n2C(=O)N1CC[C@@H](Oc2ccc(F)cc2)C1 [Example 480]
c: Cn1c(=O)n(C(=O)N2CCCC2)c2cnc(-c3ccncc3)nc21 [Example 213]
d: CN(C)C(=O)n1c(=O)n(C)c2cnc(-c3ccc(OC(F)F)cc3)nc21 [Example 337]
**Query** Order the records so the highest IC50 appears first and the lowest last. Please express your ranking as an ordered list of the labels.
**Result** b, d, a, c

1: CN(C)C(=O)n1c(=O)n(C)c2cnc(COc3ccccc3OC(F)(F)F)nc21 [Example 430]
2: CCCOc1ccc(CCc2ncc3c(n2)n(C(=O)N2CCC2)c(=O)n3C)cc1 [compound 564]
3: CN(C)C(=O)n1c(=O)n(C)c2cnc(CCc3ccc(F)c(F)c3)nc21 [compound 496]
4: CC(C)Oc1cccc(CCc2ncc3c(n2)n(C(=O)N(C)C)c(=O)n3C)c1 [compound 536]
**Query** Sort the compounds on IC50; start with the lowest figure. Please express your ranking as an ordered list of the labels.
**Result** 2, 3, 1, 4

1: COCCCc1ncc2c(n1)n(C)c(=O)n2C(=O)N1CC(c2ccc(F)cc2)C1 [Example 381]
2: CCN(C)C(=O)n1c(=O)n(C)c2cnc(CCc3cccc(OC(F)(F)F)c3)nc21 [compound 558]
**Query** Hi team, can someone confirm which has the larger IC50: 1 or 2 ? Thanks. Respond with the label that goes with your answer.
**Result** 2
(2: 0.023 µM, 1: 0.008 µM)

1: COCc1ncc2c(n1)n(C)c(=O)n2C(=O)N1CC(c2ccc(C(F)(F)F)cc2)C1 [compound 448]
2: Cn1c(=O)n(C(=O)N2CCCC2)c2nc(Cc3ccc(F)c(F)c3)ncc21 [Example 293]
**Query** Hi team, can someone confirm which has the larger IC50: 1 or 2 ? Thanks. Respond with the label that goes with your answer.
**Result** 2

1: CN(C)C(=O)n1c(=O)n(C)c2cnc(-c3cccc(C(F)(F)F)c3)nc21 [compound 325]
2: COCc1ncc2c(n1)n(C)c(=O)n2C(=O)N1CC(c2cccc(C(F)(F)F)c2)C1 [Example 443]
**Query** Hi team, can someone confirm which has the larger IC50: 1 or 2 ? Thanks. Respond with the label that goes with your answer.
**Result** 1

I: COCCc1ncc2c(n1)n(C)c(=O)n2C(=O)N1CC(c2cccc(C(F)(F)F)c2)C1 [compound 393]
II: CN(C)C(=O)n1c(=O)n(C)c2cnc(-c3cccc(C(F)F)c3)nc21 [Example 332]
**Query** Looking at I and II , which one comes out lower in IC50 terms? Respond with the label that goes with your answer.
**Result** I
(I: 0.01 µM, II: 0.038 µM)

P: COc1cccc(-c2ncc3c(n2)n(C)c(=O)n3C(=O)N(C)Cc2ccc(C(F)(F)F)cc2)c1 [Example 81]
Q: COc1cccc(-c2ncc3c(n2)n(C)c(=O)n3C(=O)N(C)CCC2CCCCC2)c1 [Example 109]
**Query** Looking at P and Q , which one comes out lower in IC50 terms? Respond with the label that goes with your answer.
**Result** Q
(Q: 0.002 µM, P: 0.011 µM)
